- assayExplanation: qHTS for Inhibitors of human tyrosyl-DNA phosphodiesterase 1 (TDP1): qHTS in cells in presence of CPT; note: nearly all actives have a fitted effect of over 55% in size
- condition: chicken DT40 Tdp1-/-;hTDP1 cells + 20 nM CPT, ATP luminescence, 48 h; series mostly up to 46.2 µM
Among all 420,000 compounds or so, about 50,000 (12%) were called active. Not shown: some 26% with an inconclusive outcome. Calls come from the whole dose curve; as a rule, active = well fitted inhibition curve with a large enough effect; inconclusive = small, poorly fitted or top-dose-only effect; inactive = flat fitted curve, though single readings scatter. The sample as a whole holds a higher share of actives than the screen did.
Labels: Y = active, N = inactive

[
  {
    "molecule": "COc1cccc(-c2nc(CS(=O)(=O)CC(=O)N3CCN(c4cc(C)ccc4C)CC3)c(C)o2)c1",
    "assignedLabel": "Y"
  },
  {
    "molecule": "CSc1ccccc1NC(=O)COC(=O)CCCOc1ccc(C)cc1",
    "assignedLabel": "N"
  },
  {
    "molecule": "Cc1nnc(SC(C)C(=O)c2c[nH]c3ccccc23)n1C1CC1 (stereo not drawn)",
    "assignedLabel": "N"
  }
]

----------
- assayExplanation: qHTS for Inhibitors of human tyrosyl-DNA phosphodiesterase 1 (TDP1): qHTS in cells in presence of CPT; note: nearly all actives have a fitted effect of over 55% in size; note: potency is the fitted concentration of half-maximal effect
- condition: chicken DT40 Tdp1-/-;hTDP1 cells + 20 nM CPT, ATP luminescence, 48 h; series mostly up to 46.2 µM
Hit rate of the full screen: of about 420,000 compounds, about 50,000 (12%) were called active. About 26% were inconclusive and are not listed. The sample as a whole holds a higher share of actives than the screen did.

[
  {
    "molecule": "Cc1ccc(S(=O)(=O)N2CCCC(C(=O)N3CCN(C)CC3)C2)cc1 (stereo not drawn)",
    "Potency": "inactive"
  },
  {
    "molecule": "CCc1cccc(NC(=O)CCNS(=O)(=O)c2cccc3nonc23)c1",
    "Potency": "inactive"
  },
  {
    "molecule": "O=C(C1CCCN(S(=O)(=O)c2cccc3nonc23)C1)N1CCN(c2ccccc2F)CC1 (stereo not drawn)",
    "Potency": "18.4 µM (active)"
  }
]

----------
- assayExplanation: qHTS for Inhibitors of human tyrosyl-DNA phosphodiesterase 1 (TDP1): qHTS in cells in presence of CPT; note: nearly all actives have a fitted effect of over 55% in size; note: potency is the fitted concentration of half-maximal effect
- condition: chicken DT40 Tdp1-/-;hTDP1 cells + 20 nM CPT, ATP luminescence, 48 h; series mostly up to 46.2 µM
Out of some 420,000 compounds screened, about 50,000 (12%) were called active. Not shown: some 26% with an inconclusive outcome. The list comes from a sample in which actives are over-represented; it also holds close analogues and randomly drawn compounds.
measurementKind: Potency

[
  {
    "compound": "COc1ccc(C2/C(=C(/O)c3ccccc3)C(=O)C(=O)N2C)c(OC)c1 (centres undefined)",
    "measured": "inactive"
  },
  {
    "compound": "CCc1ccc(S(=O)(=O)c2nnn3c2nc(NCc2ccccc2OC)c2cc(Cl)ccc23)cc1",
    "measured": "inactive"
  },
  {
    "compound": "Cc1ccc(NC(=S)NCc2ccccc2Cl)c(C)c1",
    "measured": "23.1 µM (active)"
  },
  {
    "compound": "COc1ccc(/C=N\\NC(=O)c2sc(N)nc2C)cc1OC",
    "measured": "inactive"
  },
  {
    "compound": "Cc1c(OC(C)C(=O)N[C@@H](Cc2ccccc2)C(=O)O)ccc2c3c(c(=O)oc12)CCCC3 (some centres undefined)",
    "measured": "inactive"
  },
  {
    "compound": "S=C(NCc1ccco1)NCc1ccccc1Cl",
    "measured": "inactive"
  },
  {
    "compound": "CCCCNc1nc2c(c(=O)n(C)c(=O)n2C)n1Cc1cccc(OC)c1",
    "measured": "2.91 µM (active)"
  },
  {
    "compound": "Cc1nc2cc(NCc3cccs3)ccc2n1C",
    "measured": "inactive"
  },
  {
    "compound": "COc1ccc(/C(O)=C2\\C(=O)C(=O)N(Cc3ccco3)C2c2ccc(OC)cc2OC)cc1 (centres undefined)",
    "measured": "29.1 µM (active)"
  },
  {
    "compound": "CC(C)OCCCNc1nc2c(c(=O)n(Cc3ccccc3F)c(=O)n2C)n1C",
    "measured": "inactive"
  },
  {
    "compound": "O=C(CN1CCCCC1)NC(=O)Nc1ccccc1F",
    "measured": "inactive"
  },
  {
    "compound": "CC(C)CNC(=S)NNC(=O)c1ccccc1OC(F)F",
    "measured": "inactive"
  },
  {
    "compound": "COc1cccc(CNC(=O)C2CCN(S(=O)(=O)c3ccc4c(ccn4C)c3)CC2)c1",
    "measured": "inactive"
  },
  {
    "compound": "CC(Sc1ncnc2c1cnn2-c1ccccc1)C(=O)Nc1ccc(N2CCOCC2)cc1 (centres undefined)",
    "measured": "inactive"
  },
  {
    "compound": "COc1cccc(CNc2nc(NCc3cccs3)nc3ccsc23)c1",
    "measured": "23.1 µM (active)"
  },
  {
    "compound": "COCCNc1nc(NCc2ccc(NC(C)=O)cc2)c2sccc2n1",
    "measured": "inactive"
  },
  {
    "compound": "COc1ccc(CNc2ncncc2-c2ccccc2C)c(OC)c1",
    "measured": "inactive"
  },
  {
    "compound": "CCN(CC)CCCN=Cc1c(O)n(-c2ccc(C)cc2)c(=O)c2ccccc12",
    "measured": "inactive"
  },
  {
    "compound": "COc1ccccc1C1/C(=C(/O)c2ccc(C)cc2)C(=O)C(=O)N1Cc1ccco1 (centres undefined)",
    "measured": "inactive"
  },
  {
    "compound": "C=CCOc1nc2c(c(=O)n(C)c(=O)n2C)n1Cc1ccc(Cl)cc1Cl",
    "measured": "18.4 µM (active)"
  },
  {
    "compound": "Cn1cccc1C(C#N)c1ccccc1C#N (centres undefined)",
    "measured": "inactive"
  },
  {
    "compound": "CC(C)CCn1c(CN(C)Cc2ccccc2)nc2c1c(=O)n(C)c(=O)n2C",
    "measured": "6.51 µM (active)"
  },
  {
    "compound": "CCn1c(CNC(=O)C23CC4CC(CC(C4)C2)C3)nnc1SCC(=O)Nc1ccc(OC)cc1",
    "measured": "inactive"
  },
  {
    "compound": "Cc1ccccc1Nc1nnc(C)c(=O)[nH]1",
    "measured": "inactive"
  },
  {
    "compound": "CNC(=O)c1sc(NCc2ccccc2OC)nc1C",
    "measured": "inactive"
  },
  {
    "compound": "CC(=O)NC12CC3CC(C1)CC(C(=O)N1CCN(C(=O)c4ccco4)CC1)(C3)C2",
    "measured": "inactive"
  },
  {
    "compound": "CCOC(=O)c1ccc2[nH]c3c(c2c1)CCCC3NC=O (centres undefined)",
    "measured": "inactive"
  },
  {
    "compound": "CCNc1nc(NC(C)C)nc(OCCOC(=O)c2ccccc2)n1",
    "measured": "inactive"
  },
  {
    "compound": "CCOc1ccccc1NC(=O)C1CCCN(S(=O)(=O)c2cn(C)cn2)C1 (centres undefined)",
    "measured": "inactive"
  }
]
